molecular target: PLK1 (Homo sapiens, UniProt P53350); construct: Full-length, active GST-PLK1 is purified from Sf9 insect cells; made in house; host or cells: Sf9 insect cells; assay: Biochemical Characterization Assay: HTRF kinase assay, GST-PLK1 phosphorylation of GST-p53; conditions: GST-PLK1, GST-p53 substrate
Sequence (P53350 whole entry): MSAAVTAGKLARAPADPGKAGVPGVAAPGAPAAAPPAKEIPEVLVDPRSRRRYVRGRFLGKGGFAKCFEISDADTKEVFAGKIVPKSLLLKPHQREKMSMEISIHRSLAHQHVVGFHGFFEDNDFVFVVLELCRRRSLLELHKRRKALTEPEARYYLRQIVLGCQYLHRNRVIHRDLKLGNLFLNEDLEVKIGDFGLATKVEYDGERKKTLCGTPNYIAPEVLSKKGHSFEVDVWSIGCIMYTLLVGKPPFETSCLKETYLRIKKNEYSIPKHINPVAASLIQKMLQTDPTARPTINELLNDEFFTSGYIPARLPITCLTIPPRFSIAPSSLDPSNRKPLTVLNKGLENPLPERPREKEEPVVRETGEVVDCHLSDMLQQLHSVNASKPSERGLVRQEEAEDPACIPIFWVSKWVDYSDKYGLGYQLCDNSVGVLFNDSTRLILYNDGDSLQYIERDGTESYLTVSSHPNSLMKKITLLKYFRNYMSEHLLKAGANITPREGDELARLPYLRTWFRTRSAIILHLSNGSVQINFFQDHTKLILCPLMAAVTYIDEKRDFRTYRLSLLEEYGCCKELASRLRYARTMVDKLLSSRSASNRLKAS
pIC50: −log10 of the molar value.
TEST_READOUT: pIC50

See these solved cases before continuing.
CN1C(=O)C(F)(F)CN(C2CCCC2)c2nc(Nc3ccc(C(=O)NC4CCOCC4)cc3F)ncc21	7.30 to 9.00
CN1C(=O)C(F)(F)CN(C2CCCC2)c2nc(Nc3cc(F)c(C(=O)NC4CCOCC4)cc3F)ncc21	7.30 to 9.00
CN1C(=O)C(F)(F)CN(C2CCCC2)c2nc(Nc3ccc(C(=O)NC4CCN(C(=O)OC(C)(C)C)CC4)cc3F)ncc21	7.30 to 9.00
COc1cc(C(=O)NCCCN(C)C)ccc1Nc1ncc2c(n1)N([C@@H]1C[C@H]1c1ccccc1)CC(F)(F)C(=O)N2C (relative stereo)	6.30 to 7.29

Enquiry: Write down measured pIC50 (PLK1 (Homo sapiens, UniProt P53350)) for this compound. "CN1C(=O)C(F)(F)CN(C2CCCCC2)c2nc(Nc3ccc(C(=O)NC4CCOCC4)cc3)ncc21"
Return: 7.30 to 9.00

Enquiry: Write down measured pIC50 (PLK1 (Homo sapiens, UniProt P53350)) for this compound. "COc1cc(C(=O)NC2CCOCC2)ccc1Nc1ncc2c(n1)N(C1CCCCC1)CC(F)(F)C(=O)N2C"
Return: 7.30 to 9.00

Enquiry: Write down measured pIC50 (PLK1 (Homo sapiens, UniProt P53350)) for this compound. "CCc1cc(C(=O)NCCN(C)C)ccc1Nc1ncc2c(n1)N(C1CCCC1)CC(F)(F)C(=O)N2C"
Return: 7.30 to 9.00
